target_or_test_system: Tubulin
method_notes: Inhibition of [3H]-colchicine binding to biotinylated-tubulin (unknown origin) measured after 45 mins by scintillation counting analysis
pIC50: −log10 of the molar value.
measured_property: pIC50

(I) Cc1nnc(S)n(N2C(=O)c3c(Br)c(Br)c(Br)c(Br)c3C2=O)c1=O
(II) CC(=O)n1c(-c2ccc(N3C(=O)c4c(Br)c(Br)c(Br)c(Br)c4C3=O)cc2)nc2ccccc21
Qu. Please indicate which item has the smaller measured pIC50: I versus II Identify your selection by its label.
Ans. II

----------
target_or_test_system: DNA topoisomerase 2-beta (Homo sapiens)
Sequence (Q02880 whole entry): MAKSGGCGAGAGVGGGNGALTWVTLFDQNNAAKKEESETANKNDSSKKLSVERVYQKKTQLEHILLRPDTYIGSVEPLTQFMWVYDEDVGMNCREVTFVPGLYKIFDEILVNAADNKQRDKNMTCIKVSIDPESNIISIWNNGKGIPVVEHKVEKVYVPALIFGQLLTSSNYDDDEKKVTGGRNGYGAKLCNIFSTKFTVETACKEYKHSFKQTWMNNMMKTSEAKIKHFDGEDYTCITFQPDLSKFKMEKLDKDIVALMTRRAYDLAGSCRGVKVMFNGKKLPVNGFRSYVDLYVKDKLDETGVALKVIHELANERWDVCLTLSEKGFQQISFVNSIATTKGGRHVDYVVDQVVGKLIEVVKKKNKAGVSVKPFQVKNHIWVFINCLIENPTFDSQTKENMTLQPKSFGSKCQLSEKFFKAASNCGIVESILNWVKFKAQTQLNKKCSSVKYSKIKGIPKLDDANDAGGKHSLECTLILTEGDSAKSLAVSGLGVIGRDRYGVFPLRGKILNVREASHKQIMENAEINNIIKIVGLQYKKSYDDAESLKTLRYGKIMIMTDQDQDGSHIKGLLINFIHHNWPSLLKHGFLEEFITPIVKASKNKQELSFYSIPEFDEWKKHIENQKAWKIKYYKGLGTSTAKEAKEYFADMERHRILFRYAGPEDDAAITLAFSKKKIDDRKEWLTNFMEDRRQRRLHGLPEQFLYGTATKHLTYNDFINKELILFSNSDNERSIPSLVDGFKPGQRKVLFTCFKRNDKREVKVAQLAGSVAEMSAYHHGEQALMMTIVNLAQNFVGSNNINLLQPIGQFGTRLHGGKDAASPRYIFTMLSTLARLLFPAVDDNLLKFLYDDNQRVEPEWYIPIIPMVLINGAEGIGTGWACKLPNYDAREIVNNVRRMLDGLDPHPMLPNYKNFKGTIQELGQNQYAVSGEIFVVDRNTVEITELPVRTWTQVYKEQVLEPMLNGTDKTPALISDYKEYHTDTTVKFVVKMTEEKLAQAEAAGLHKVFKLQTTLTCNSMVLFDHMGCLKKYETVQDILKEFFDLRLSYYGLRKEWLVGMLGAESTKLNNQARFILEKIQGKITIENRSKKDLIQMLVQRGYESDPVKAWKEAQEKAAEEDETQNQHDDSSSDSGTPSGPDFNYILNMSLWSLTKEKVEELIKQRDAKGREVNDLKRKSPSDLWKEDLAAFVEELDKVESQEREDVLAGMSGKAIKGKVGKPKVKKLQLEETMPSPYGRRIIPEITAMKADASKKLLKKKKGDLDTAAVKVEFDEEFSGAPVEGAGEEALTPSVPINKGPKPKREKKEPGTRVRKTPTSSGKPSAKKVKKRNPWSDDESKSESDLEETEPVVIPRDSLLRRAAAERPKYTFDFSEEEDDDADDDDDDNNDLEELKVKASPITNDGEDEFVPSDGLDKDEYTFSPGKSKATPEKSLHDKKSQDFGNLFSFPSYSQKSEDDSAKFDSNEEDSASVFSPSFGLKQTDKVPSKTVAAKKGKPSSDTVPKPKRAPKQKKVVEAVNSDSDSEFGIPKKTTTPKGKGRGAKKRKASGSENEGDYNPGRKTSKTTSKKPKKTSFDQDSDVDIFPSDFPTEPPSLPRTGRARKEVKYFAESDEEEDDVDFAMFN
measured_property: pIC50
Please treat pIC50 as minus the base-10 logarithm of the molar concentration.

Qu. # query: pIC50 | item Cc1nnc(S)n(N2C(=O)c3c(Br)c(Br)c(Br)c(Br)c3C2=O)c1=O | system: DNA topoisomerase 2-beta (Homo sapiens)
Ans. 4.58
